Values from patent US9388148B2

- TESTED_SYSTEM: human dopamine D2L receptors (long isoform) (Homo sapiens, UniProt P14416)
- Construct: expressed in transfected cells; host or cells: HEK-293
- Sequence (P14416 whole entry, canonical isoform): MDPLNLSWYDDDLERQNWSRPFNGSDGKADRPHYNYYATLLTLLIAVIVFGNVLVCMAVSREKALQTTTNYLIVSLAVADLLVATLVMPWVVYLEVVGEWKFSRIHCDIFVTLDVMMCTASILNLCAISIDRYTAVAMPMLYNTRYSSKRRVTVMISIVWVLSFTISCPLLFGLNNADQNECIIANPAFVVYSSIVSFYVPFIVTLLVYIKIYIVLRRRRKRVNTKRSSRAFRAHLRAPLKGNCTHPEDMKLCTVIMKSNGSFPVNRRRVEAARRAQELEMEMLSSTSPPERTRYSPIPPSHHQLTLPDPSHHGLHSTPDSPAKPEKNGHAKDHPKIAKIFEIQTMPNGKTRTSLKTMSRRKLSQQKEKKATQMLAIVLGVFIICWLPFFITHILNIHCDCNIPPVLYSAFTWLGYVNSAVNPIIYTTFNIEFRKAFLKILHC
- PROCEDURE_DETAILS: Dopamine D2L receptor binding ([125I]iodospiperone displacement)
- TEST_CONTEXT: selectivity ratio, human D2L vs human D3 binding
- Protocol: The substance to be tested was either dissolved in methanol/Chremophor® (BASF SE) or in dimethyl sulfoxide and then diluted with water to the desired concentration. Each assay mixture was run in triplicate. • The incubation buffer contained 50 mM tris, 120 mM NaCl, 5 mM KCl, 2 mM CaCl2, 2 mM MgCl2 and 0.1% bovine serum albumin, 10 μM quinolone and 0.1% ascorbic acid (prepared fresh daily). […]
MEASURED_PARAMETER: D2/D3, Ki (D2L)/Ki (D3)

COMPOUND	MEASURED_PARAMETER	RESULT
CC(C)(C)c1cc(N2CCN(CC[C@H]3CC[C@H](NC(=O)[C@H]4CC[C@H](O)CC4)CC3)CC2)nc(C(C)(C)C)n1	D2/D3, Ki (D2L)/Ki (D3)	++ (++ >20)
COCCc1cc(N2CCN(CCC3CCC(NC(=O)C4CCC(O)CC4)CC3)C[C@H]2C)nc(C(C)(C)C)n1 (stereo partly drawn)	D2/D3, Ki (D2L)/Ki (D3)	+++ (+++ >50)
COCCc1cc(N2CCN(CC[C@H]3C[C@@H](NC(=O)[C@H]4CC[C@@H](O)CC4)C3)CC2)nc(C(C)(C)C)n1	D2/D3, Ki (D2L)/Ki (D3)	+++ (+++ >50)
CC(C)(C)c1nc(C2CCCC2)cc(N2CCN(CC[C@H]3CC[C@@H](NC(=O)[C@H]4CC[C@H](O)CC4)CC3)CC2)n1	D2/D3, Ki (D2L)/Ki (D3)	+++ (+++ >50)
CC(C)c1cc(N2CCN(CCC3CCC(NC(=O)[C@H]4CC[C@H](O)CC4)CC3)C[C@@H]2C)nc(C(C)(C)C)n1 (stereo partly drawn)	D2/D3, Ki (D2L)/Ki (D3)	+++ (+++ >50)
COCCc1cc(N2CCN(CC[C@H]3CC[C@H](NC(=O)[C@H]4CC[C@H](OC)CC4)CC3)CC2)nc(C(C)(C)C)n1	D2/D3, Ki (D2L)/Ki (D3)	++ (++ >20)
